Assay: Pharmacokinetics in male Sprague-Dawley rats, single oral gavage
Assay type: in vivo
Settings: rat, 5 mg/kg, plasma
Some compounds, each annotated with its measured AUC(0-t).
quantity-kind: AUC(0-t)

CS(=O)(=O)NC[C@@H]1CC[C@@H](Nc2c(F)cnc3[nH]cc(C(=O)c4ccc(Oc5c(F)cccc5F)cc4F)c23)CO1 | 4950 ng·h/mL
CS(=O)(=O)NC[C@@H]1CC[C@@H](Nc2c(F)cnc3[nH]cc(C(=O)c4ccc(Oc5ccccc5F)cc4F)c23)CO1 | 8340 ng·h/mL

###

Assay: Pharmacokinetics in male Sprague-Dawley rats, single oral gavage
Format: in vivo
Settings: rat, 5 mg/kg, plasma
quantity-kind: half-life (h)

CS(=O)(=O)NC[C@@H]1CC[C@@H](Nc2c(F)cnc3[nH]cc(C(=O)c4ccc(Oc5c(F)cccc5F)cc4F)c23)CO1 | 3.69
CS(=O)(=O)NC[C@@H]1CC[C@@H](Nc2c(F)cnc3[nH]cc(C(=O)c4ccc(Oc5ccccc5F)cc4F)c23)CO1 | 3.08

###

Target: BTK (C481S) (Homo sapiens (Human), UniProt Q06187, C481S)
Sequence (Q06187 whole entry C481S): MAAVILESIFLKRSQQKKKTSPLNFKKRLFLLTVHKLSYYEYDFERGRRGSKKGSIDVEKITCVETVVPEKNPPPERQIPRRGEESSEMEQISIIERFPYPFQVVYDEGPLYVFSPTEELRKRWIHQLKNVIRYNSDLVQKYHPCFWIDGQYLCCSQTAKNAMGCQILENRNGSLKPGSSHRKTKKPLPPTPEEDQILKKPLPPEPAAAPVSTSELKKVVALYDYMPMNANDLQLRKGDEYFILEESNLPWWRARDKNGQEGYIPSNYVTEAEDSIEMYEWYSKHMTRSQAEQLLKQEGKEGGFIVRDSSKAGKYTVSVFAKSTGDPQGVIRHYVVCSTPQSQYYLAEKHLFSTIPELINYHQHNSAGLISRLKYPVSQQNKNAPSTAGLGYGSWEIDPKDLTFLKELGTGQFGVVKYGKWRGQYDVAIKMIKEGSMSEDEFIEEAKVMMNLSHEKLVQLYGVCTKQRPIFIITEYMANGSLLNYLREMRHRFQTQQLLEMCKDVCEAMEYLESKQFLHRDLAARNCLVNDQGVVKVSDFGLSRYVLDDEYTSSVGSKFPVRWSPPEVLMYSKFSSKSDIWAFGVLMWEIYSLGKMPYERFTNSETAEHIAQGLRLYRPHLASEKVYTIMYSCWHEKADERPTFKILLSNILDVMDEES
Experiment: Kinase assay of BTK (C481S), [33P]-ATP filter-binding, at Reaction Biology Corporation
Conditions: 10 μM ATP, 6 nM BTK (C481S), pEY substrate, 20 min pre-incubation, 120 min reaction
Some compounds, each annotated with its measured IC50.
quantity-kind: IC50 (nM)

CS(=O)(=O)NC[C@@H]1CC[C@@H](Nc2c(F)cnc3[nH]cc(C(=O)c4ccc(Oc5c(F)cccc5F)cc4F)c23)CO1 | 1.5
CS(=O)(=O)NC[C@@H]1CC[C@@H](Nc2c(F)cnc3[nH]cc(C(=O)c4ccc(Oc5ccccc5F)cc4F)c23)CO1 | 0.66
